Reference source: patent US6703414B2

pIC50: −log10 of the molar value.
pIC50 data for mTOR (Homo sapiens, UniProt P42345) follow.

COC[C@H]1OC(=O)/C(=C/N2CCCC2)C2=C(O)C(=O)C3=C([C@H](OC(C)=O)C[C@]4(C)C(=O)CC[C@@H]34)[C@]21C    < 5.52

**Q:** Return value of pIC50 for input C=CCN(/C=C1/C(=O)O[C@H](COC)[C@@]2(C)C1=C(O)C(=O)C1=C2[C@H](OC(C)=O)C[C@]2(C)C(=O)CC[C@@H]12)CC=C , no commentary.
**A:** < 5.52

---

# System: NCI cell panel (60 cell lines)
# method-summary: cytotoxicity NCI cell panel, MTT assay
# run-parameters: 48 h, read-out: cytotoxicity NCI cell panel IC50
Recorded pIC50 for the following compounds
// pIC50 here means minus log10 of the molar concentration (mol/L)

C=CCN(/C=C1/C(=O)O[C@H](COC)[C@@]2(C)C1=C(O)C(=O)C1=C2[C@H](OC(C)=O)C[C@]2(C)C(=O)CC[C@@H]12)CC=C [DJM2-166]    5.66

Let's switch to this compound now.
**Q:** Indicate its recorded pIC50; the compound in question is COC[C@H]1OC(=O)/C(=C/N2CCCC2)C2=C(O)C(=O)C3=C([C@H](OC(C)=O)C[C@]4(C)C(=O)CC[C@@H]34)[C@]21C [DJM2-167]
**A:** 6.30
